Molecular target: TBK1 (Homo sapiens, UniProt Q9UHD2)
Experiment: TBK Biochemical Assay
Settings: read-out: TBK1 IC50
Observation type: IC50

Sample records with IC50:
# Compound, IC50
rows = [
    ("COc1cc(C(=O)N2CCCC3(CCNC3)C2)ccc1-c1cc2nccc(-c3ccc(OC4CCOCC4)c(C#N)c3)c2o1 (centres unmarked) [Compound 25]", "< 100 nM"),
    ("COc1cc(C(=O)N(C)C)cnc1-c1cc2ncc(F)c(-c3ccc(NC4CCOCC4)c(C#N)c3)c2o1 [Compound 329]", "< 100 nM"),
    ("COc1cc(C(=O)N(C)C)cnc1-c1cc2nccc(-c3ccc(NC4CCN(C)C4)c(C#N)c3)c2o1 (centres unmarked) [Compound 433]", "< 100 nM"),
]

IC50 lookup needed for COc1cc(C(=O)N(C)C)ccc1-c1cc2nccc(-c3cc(C#N)c(NC4CCOCC4)c(C4CC4)c3)c2o1 [Compound 308] , thanks.
> 5000 nM

IC50 lookup needed for COc1cc(C(=O)N(C)C)cnc1-c1cc2ncc(C3CC3)c(-c3ccc(OC4CCOCC4)c(C#N)c3)c2o1 [Compound 323] , thanks.
> 5000 nM

* * *

Target: UniProt:Q9UHD2
Test: TBK Biochemical Assay
Conditions: read-out: TBK1 IC50
pIC50: −log10 of the molar value. Counter-ions that a name gives are not always drawn.
Listing: pIC50 of selected compounds

Sample records with pIC50:
# Compound, Observation type, Result
records = [
    ("COc1cc(C(=O)N(C)C)cnc1-c1cc2ncc(C(C)C)c(-c3ccc(NC4CCOCC4)c(C#N)c3)c2o1 [Compound 335, hydrochloride]", "pIC50", "< 5.30"),
    ("COc1cc(C(=O)N2CC3CCC2CO3)ncc1-c1cc2nccc(-c3ccc(OC4CCOCC4)c(C#N)c3)c2o1 (centres unmarked) [Compound 413, hydrochloride]", "pIC50", "> 7.00"),
]

pIC50 lookup needed for COc1cc(C(=O)NN)ccc1-c1cc2nccc(-c3ccc(OC4CCOCC4)c(C#N)c3)c2o1 , thanks.
> 7.00

pIC50 lookup needed for COc1cc(C(=O)N[C@@H]2CC[C@@H]3CN(C)C[C@@H]32)ccc1-c1cc2nccc(-c3ccc(OC4CCOCC4)c(C#N)c3)c2o1 , thanks.
> 7.00

* * *

Target: IKKε (Homo sapiens)
Test: IKKe Biochemical Assay
Details: read-out: IKKε IC50
pIC50: −log10 of the molar value. Counter-ions that a name gives are not always drawn.
Observation type: pIC50

# Compound, pIC50
data = [
    ("COc1cc(C(=O)N(C)C)cnc1-c1cc2ncc(C)c(-c3ccc(NC4CCOCC4)c(C#N)c3)c2o1", "5.30 to 6.00"),
    ("COc1cc(C(=O)N(C)C)cnc1-c1cc2ncc(OC)c(-c3ccc(NC4CCOCC4)c(C#N)n3)c2o1", "5.30 to 6.00"),
    ("COc1cc(C(=O)N(C)C)cnc1-c1cc2ncc(C)c(-c3ccc(OC4CCOCC4)c(C#N)n3)c2o1 [Compound 321, hydrochloride]", "6.00 to 7.00"),
]

// next item, pIC50 requested
pIC50 lookup needed for CN(C)C(=O)c1cnc(-c2cc3nccc(-c4cc(F)c(NC5CCOCC5)c(C#N)c4)c3o2)c(F)c1 , thanks.
6.00 to 7.00

* * *

Listing: pIC50 of selected molecules
Molecular target: IKKε (Homo sapiens)
Sequence (Q14164 1-716): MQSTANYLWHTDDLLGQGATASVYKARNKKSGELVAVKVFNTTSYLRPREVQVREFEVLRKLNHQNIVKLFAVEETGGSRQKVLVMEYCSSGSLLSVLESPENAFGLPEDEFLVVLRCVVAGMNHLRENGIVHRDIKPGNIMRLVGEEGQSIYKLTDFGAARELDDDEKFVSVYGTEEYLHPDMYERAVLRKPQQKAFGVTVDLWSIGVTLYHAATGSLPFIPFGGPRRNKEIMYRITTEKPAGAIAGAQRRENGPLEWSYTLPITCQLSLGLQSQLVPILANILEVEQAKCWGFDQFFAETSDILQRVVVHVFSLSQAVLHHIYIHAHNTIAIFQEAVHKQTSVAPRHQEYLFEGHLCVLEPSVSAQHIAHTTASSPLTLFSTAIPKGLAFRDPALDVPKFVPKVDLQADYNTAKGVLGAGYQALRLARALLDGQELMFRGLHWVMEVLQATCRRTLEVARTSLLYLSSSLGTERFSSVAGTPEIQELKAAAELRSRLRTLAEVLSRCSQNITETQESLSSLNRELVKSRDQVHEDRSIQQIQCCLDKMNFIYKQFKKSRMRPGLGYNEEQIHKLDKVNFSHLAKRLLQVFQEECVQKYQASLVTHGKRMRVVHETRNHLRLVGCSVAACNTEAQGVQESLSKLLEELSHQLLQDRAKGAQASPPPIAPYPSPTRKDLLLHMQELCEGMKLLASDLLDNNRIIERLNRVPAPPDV
Assay: IKKe Biochemical Assay
Details: read-out: IKKε IC50
pIC50: −log10 of the molar value. Structures can show the parent of a compound that is named as a salt.

# Molecule, Test system, Result
data = [
    ("COc1cc(C(=O)N2CC[C@H](N(C)C)C2)cnc1-c1cc2nccc(-c3ccc(N4CC[C@H](F)C4)c(C#N)c3)c2o1 [Compound 447]", "IKKε (Homo sapiens)", "> 7.00"),
    ("COc1cc(C(=O)N(C)C)ncc1-c1cc2nccc(-c3cc(C#N)c(OC4CCOCC4)cn3)c2o1 [Compound 386]", "IKKε (Homo sapiens)", "6.00 to 7.00"),
    ("COc1cc(-c2cc3nccc(-c4ccc(NC5CCOCC5)c(C#N)c4)c3o2)cnc1C(=O)N(C)C [Compound 394]", "IKKε (Homo sapiens)", "6.00 to 7.00"),
    ("COc1cc(C(=O)N2CC3COCC3C2)ncc1-c1cc2nccc(-c3ccc(NC4CCOCC4)c(C#N)c3)c2o1 (centres unmarked) [Compound 421]", "IKKε (Homo sapiens)", "> 7.00"),
]

// next item, pIC50 requested
Form: Entry = CN(C)C(=O)c1ccc(-c2cc3nccc(-c4ccc(C5(N6CCOCC6)CC5)c(C#N)c4)c3o2)cc1 [Compound 287, hydrochloride] | System = IKKε (Homo sapiens) | pIC50 = ____
< 5.30

* * *

Listing: pIC50 of selected compounds
Target: TBK1 (Homo sapiens)
Sequence (Q9UHD2 1-729): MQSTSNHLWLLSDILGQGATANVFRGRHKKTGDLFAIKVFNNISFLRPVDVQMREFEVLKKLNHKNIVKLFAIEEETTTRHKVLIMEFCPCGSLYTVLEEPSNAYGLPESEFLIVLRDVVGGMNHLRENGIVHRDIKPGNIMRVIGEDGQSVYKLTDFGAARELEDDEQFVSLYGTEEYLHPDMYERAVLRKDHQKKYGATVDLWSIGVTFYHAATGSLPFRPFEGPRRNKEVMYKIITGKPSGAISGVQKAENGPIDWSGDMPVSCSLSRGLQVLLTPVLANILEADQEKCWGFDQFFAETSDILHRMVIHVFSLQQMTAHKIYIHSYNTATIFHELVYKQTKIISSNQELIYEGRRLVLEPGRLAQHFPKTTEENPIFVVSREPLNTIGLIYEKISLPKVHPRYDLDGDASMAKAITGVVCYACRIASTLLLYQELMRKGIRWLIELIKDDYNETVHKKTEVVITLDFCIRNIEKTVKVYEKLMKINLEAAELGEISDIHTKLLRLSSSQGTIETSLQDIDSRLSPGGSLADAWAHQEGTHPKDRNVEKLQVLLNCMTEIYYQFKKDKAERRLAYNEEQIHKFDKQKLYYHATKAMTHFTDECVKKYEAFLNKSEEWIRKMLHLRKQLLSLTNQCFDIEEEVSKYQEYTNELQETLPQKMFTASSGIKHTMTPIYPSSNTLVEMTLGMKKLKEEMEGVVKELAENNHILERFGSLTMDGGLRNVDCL
Assay: TBK Biochemical Assay
Details: read-out: TBK1 IC50
pIC50: −log10 of the molar value. Where a name gives a salt, the structure may show the parent alone.

Sample records with pIC50:
# Compound, pIC50
records = [
    ("COc1cc(C(=O)N(C)C)ccc1-c1cc2nccc(-c3ccc(NC4CCOCC4O)c(C#N)c3)c2o1 (stereo not shown) [Compound 82]", "> 7.00"),
    ("COc1cc(C(=O)NCC2CCNCC2)ccc1-c1cc2nccc(-c3ccc(OC4CCOCC4)c(C#N)c3)c2o1 [Compound 92, hydrochloride]", "> 7.00"),
    ("CN(C)C(=O)c1ccc(-c2cc3nccc(-c4ccc(OC5CCCOC5)c(C#N)c4)c3o2)cc1 (stereo not shown) [Compound 160]", "6.00 to 7.00"),
    ("COc1cc(C(=O)NC2CN3CCC2CC3)cnc1-c1cc2nccc(-c3ccc(N4CC[C@@H](F)C4)c(C#N)c3)c2o1 (stereo partly shown) [Compound 440]", "> 7.00"),
    ("COc1cc(C(=O)NC2CCN(C(=O)OC(C)(C)C)C2)ccc1-c1cc2nccc(-c3ccc(NC4CCOCC4)c(C#N)c3)c2o1 (stereo not shown) [Compound 147]", "> 7.00"),
]

pIC50 lookup needed for CN(C)C(=O)c1cnc(-c2cc3nccc(-c4ccc(NC5CCOCC5)c(C#N)c4)c3o2)c(F)c1 [Compound 249] , thanks.
6.00 to 7.00

pIC50 lookup needed for COc1cc(C(=O)N(C)C)ccc1-c1cc2nccc(-c3ccc(OC4CCN(C(=O)OC(C)(C)C)CC4)c(C#N)c3)c2o1 [Compound 182] , thanks.
< 5.30

Data provenance: patent US10428080B2
